PROTOCOL_SUMMARY: Bioavailability / plasma pharmacokinetics after inhalation (MDI) versus i.v. in tracheostomized dogs
MEASUREMENT_CONDITIONS: dog, in vivo, iv, 0.5 mg/kg, Plasma concentration (5-LO Inhibitor Levels)
ASSAY_ENDPOINT: concentration at 0.08 h (ng/mL)
Answer with a number only, understood to be in ng/mL.

Please supply the value of reported concentration at 0.08 h for the item CC(C#Cc1ccc(Cc2ccc(F)cc2)s1)N(O)C(N)=O (stereo not shown) [5-LO inhibitor #1] 630

----------
PROTOCOL_SUMMARY: Bioavailability / plasma pharmacokinetics after inhalation (MDI) versus i.v. in tracheostomized dogs
MEASUREMENT_CONDITIONS: dog, in vivo, iv, 0.5 mg/kg, Plasma concentration (5-LO Inhibitor Levels)
ASSAY_ENDPOINT: concentration at 8 h (ng/mL)
Value expressed in ng/mL; do not type the unit.

Let me know recorded concentration at 8 h for CC(C#Cc1ccc(Cc2ccc(F)cc2)s1)N(O)C(N)=O (stereo not shown) [5-LO inhibitor #1] , thanks. 230

----------
PROTOCOL_SUMMARY: Bioavailability / plasma pharmacokinetics after inhalation (MDI) versus i.v. in tracheostomized dogs
Assay type: in vivo
MEASUREMENT_CONDITIONS: dog, in vivo, inhaled or intranasal, 0.5 mg/kg
ASSAY_ENDPOINT: Cmax (ng/mL)
Numbers only here, please. The scale is ng/mL.

Find the measured Cmax of CC(C#Cc1ccc(Cc2ccc(F)cc2)s1)N(O)C(N)=O (stereo not shown) and report it. 150

----------
PROTOCOL_SUMMARY: Bioavailability / plasma pharmacokinetics after inhalation (MDI) versus i.v. in tracheostomized dogs
MEASUREMENT_CONDITIONS: dog, in vivo, inhaled or intranasal, 0.5 mg/kg, Plasma concentration (5-LO Inhibitor Levels)
ASSAY_ENDPOINT: concentration at 12 h (ng/mL)
Express the result in ng/mL but write the number alone.

Note concentration at 12 h for the molecule shown: CC(C#Cc1ccc(Cc2ccc(F)cc2)s1)N(O)C(N)=O (stereo not shown) [5-LO inhibitor #1] 70

----------
PROTOCOL_SUMMARY: Bioavailability / plasma pharmacokinetics after inhalation (MDI) versus i.v. in tracheostomized dogs
Format: in vivo
MEASUREMENT_CONDITIONS: dog, in vivo, inhaled or intranasal, 0.5 mg/kg, Plasma concentration (5-LO Inhibitor Levels)
Description: All quantitative analyses for 5-LO inhibitor #1 formulations were performed by high pressure liquid chromatography (HPLC). […] Using a test preparation containing 25 mg/mL 5-LO inhibitor #1 and 2.5 mg/mL olive oil in HFC-134a propellant, pulmonary absorption and in vivo distribution (i.e. bioavailibility factors) were assessed in four tracheostomized dogs (Marshall Farms, N.Y.) weighing about 10 kilograms (kg) each. […]
ASSAY_ENDPOINT: concentration at 0.5 h (ng/mL)
Output spec: scalar in ng/mL, unitless text.

Fill in concentration at 0.5 h for record CC(C#Cc1ccc(Cc2ccc(F)cc2)s1)N(O)C(N)=O (stereo not shown) [5-LO inhibitor #1] 10

----------
PROTOCOL_SUMMARY: Bioavailability / plasma pharmacokinetics after inhalation (MDI) versus i.v. in tracheostomized dogs
MEASUREMENT_CONDITIONS: dog, in vivo, inhaled or intranasal, 0.5 mg/kg, Bioavailability (absolute lung bioavailability versus i.v.)
ASSAY_ENDPOINT: bioavailability

Look up and state reported bioavailability for CC(C#Cc1ccc(Cc2ccc(F)cc2)s1)N(O)C(N)=O (stereo not shown) ~64%

Where these numbers come from: patent US5635161A
